# System: Escherichia coli TOP10;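 also: peptides expressed intracellularly from a pBAD plasmid library in pooled LB shake-flask culture, induced with 0.3% L-arabinose, DNA abundance read by NGS, three biological replicates, DESeq2 with apeglm shrinkage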
# assay: shrunken log2 fold change of peptide-encoding DNA abundance (4.5 h post-induction vs induction); higher = less antimicrobial activity (less host growth inhibition)
# condition notes: time post-induction: 4.5 h; library: site-saturation at positions 5, 18, 19, 20
Kindly return label 1 if reported shrunken log2 fold change is no lower than -0.2; return label 0 if it is lower.

| biosequence | assigned category |
| --- | --- |
| RRIRRRPPRLPRPRPRPKLCPRP | label 1 |
| RRIRERPPRLPRPRPRPCHLPRP | label 1 |
| RRIRMRPPRLPRPRPRPLSWPRP | label 1 |
| RRIRVRPPRLPRPRPRPGIQPRP | label 1 |
| RRIRQRPPRLPRPRPRPETIPRP | label 1 |
| RRIRKRPPRLPRPRPRPYFFPRP | label 1 |
| RRIRMRPPRLPRPRPRPCEAPRP | label 1 |
| RRIRRRPPRLPRPRPRPCYHPRP | label 1 |
| RRIRIRPPRLPRPRPRPSPDPRP | label 1 |
| RRIRHRPPRLPRPRPRPNAVPRP | label 1 |
| RRIRMRPPRLPRPRPRPIPFPRP | label 1 |
| RRIRIRPPRLPRPRPRPFARPRP | label 1 |
| RRIRKRPPRLPRPRPRPSGSPRP | label 1 |
| RRIRERPPRLPRPRPRPYVTPRP | label 0 |
| RRIRSRPPRLPRPRPRPCGVPRP | label 1 |
| RRIRKRPPRLPRPRPRPMQHPRP | label 1 |
| RRIRTRPPRLPRPRPRPCMGPRP | label 0 |
| RRIRSRPPRLPRPRPRPVAMPRP | label 1 |
| RRIRSRPPRLPRPRPRPGTWPRP | label 1 |
| RRIRQRPPRLPRPRPRPTKHPRP | label 1 |
| RRIRFRPPRLPRPRPRPYANPRP | label 0 |
| RRIRIRPPRLPRPRPRPQMQPRP | label 0 |
| RRIRVRPPRLPRPRPRPHIGPRP | label 1 |
| RRIRSRPPRLPRPRPRPILLPRP | label 0 |
| RRIRHRPPRLPRPRPRPESTPRP | label 1 |
| RRIRIRPPRLPRPRPRPITMPRP | label 0 |
| RRIRIRPPRLPRPRPRPITSPRP | label 0 |
| RRIRPRPPRLPRPRPRPGEVPRP | label 1 |
| RRIRRRPPRLPRPRPRPGYLPRP | label 1 |
| RRIRTRPPRLPRPRPRPFNDPRP | label 1 |
| RRIRWRPPRLPRPRPRPSIEPRP | label 1 |
| RRIRFRPPRLPRPRPRPPMIPRP | label 0 |
| RRIRYRPPRLPRPRPRPRSQPRP | label 1 |
| RRIRPRPPRLPRPRPRPEHQPRP | label 1 |
| RRIRNRPPRLPRPRPRPPIDPRP | label 0 |
| RRIRTRPPRLPRPRPRPVYNPRP | label 0 |
| RRIRDRPPRLPRPRPRPHWIPRP | label 0 |
| RRIRERPPRLPRPRPRPYMKPRP | label 0 |
| RRIRCRPPRLPRPRPRPTKVPRP | label 0 |
| RRIRFRPPRLPRPRPRPLDNPRP | label 1 |
| RRIRCRPPRLPRPRPRPGDMPRP | label 1 |
| RRIRDRPPRLPRPRPRPGCYPRP | label 1 |
| RRIRNRPPRLPRPRPRPGEDPRP | label 0 |
| RRIRGRPPRLPRPRPRPHVCPRP | label 1 |
| RRIRQRPPRLPRPRPRPFNPPRP | label 1 |
| RRIRIRPPRLPRPRPRPFCRPRP | label 1 |
| RRIRDRPPRLPRPRPRPMHYPRP | label 1 |
| RRIRCRPPRLPRPRPRPCHAPRP | label 1 |
| RRIRYRPPRLPRPRPRPFIEPRP | label 0 |
| RRIRHRPPRLPRPRPRPRATPRP | label 1 |
| RRIRKRPPRLPRPRPRPCIRPRP | label 1 |
| RRIRNRPPRLPRPRPRPIMQPRP | label 1 |
